targetOrTestSystem: T1, recombinant mouse TfR-1, His-tagged (Sino Biological 50741-M07H) (mouse, UniProt Q62351 89-763)
T1 construct: bought; His-tagged; also called mTfR1; mTfR-1
T1 sequence (Q62351 89-763 limits assumed, stated change not applied): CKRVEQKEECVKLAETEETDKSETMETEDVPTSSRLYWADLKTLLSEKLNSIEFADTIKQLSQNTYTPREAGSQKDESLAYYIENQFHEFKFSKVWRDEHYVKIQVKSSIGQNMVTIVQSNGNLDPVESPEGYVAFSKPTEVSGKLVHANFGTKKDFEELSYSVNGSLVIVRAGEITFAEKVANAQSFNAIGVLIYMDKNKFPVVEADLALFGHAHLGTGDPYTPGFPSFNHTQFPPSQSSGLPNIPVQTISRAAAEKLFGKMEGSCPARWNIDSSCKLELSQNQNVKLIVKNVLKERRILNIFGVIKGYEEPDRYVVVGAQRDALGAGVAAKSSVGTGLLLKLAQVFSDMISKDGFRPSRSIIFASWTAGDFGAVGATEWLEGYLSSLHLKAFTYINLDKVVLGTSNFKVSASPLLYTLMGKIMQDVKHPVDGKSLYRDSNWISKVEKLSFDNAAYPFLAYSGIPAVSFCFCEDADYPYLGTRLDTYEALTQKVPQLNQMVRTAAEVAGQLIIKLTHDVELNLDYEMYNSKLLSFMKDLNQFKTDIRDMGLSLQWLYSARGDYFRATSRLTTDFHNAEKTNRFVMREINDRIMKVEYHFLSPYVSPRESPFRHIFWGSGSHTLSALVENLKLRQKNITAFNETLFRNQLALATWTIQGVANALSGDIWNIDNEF
testDetails: SPR, His-captured TfR1
Consider the following binders; for each one, report its pKd.
Numbers only, as −log10 of the molar value.

Example cases with answers are listed next.
Which value of pKd has been reported for Clone H variant 4 VNAR-hFc (Fc fusion, not shown: a dimerising Fc or GST) ARVDQTPQTITKETGESLTINCVLRDSNCELSSTYWYRKKSGSTNEESISKGGRYVETVNSGSKSFSLRINDLVVEDSGTYRCNVQQFPSRFNGRYWCDVYGGGTAVTVNA in the records?
7.91

Which value of pKd has been reported for Clone H variant 6 VNAR-hFc (Fc fusion, not shown: a dimerising Fc or GST) ARVDQTPQTITKETGESLTINCVLRDSNCELSSTYWYRKKSGSTNEESISKGGRYVETVNSGSKSFSLRINDLVVEDSGTYRCNVQQFPSRNNGRYWCDVYGGGTAVTVNA in the records?
7.78

Which value of pKd has been reported for Clone H variant 8 VNAR-hFc (Fc fusion, not shown: a dimerising Fc or GST) ARVDQTPQTITKETGESLTINCVLRDSNCELSSTYWYRKKSGSTNEESISKGGRYVETVNSGSKSFSLRINDLVVEDSGTYRCNVQQFPSRHNGRYWCDVYGGGTAVTVNA in the records?
8.08

Go through the list and state pKd for each entry.
1. Clone H VNAR-hFc fusion (Fc fusion, not shown: a dimerising Fc or GST, bivalent VNAR-Fc) ARVDQTPQTITKETGESLTINCVLRDSNCELSSTYWYRKKSGSTNEESISKGGRYVETVNSGSKSFSLRINDLVVEDSGTYRCNVQQFPSSSNGRYWCDVYGGGTAVTVNA
2. Clone H variant 2 VNAR-hFc (Fc fusion, not shown: a dimerising Fc or GST) ARVDQTPQTITKETGESLTINCVLRDSNCELSSTYWYRKKSGSTNEESISKGGRYVETVNSGSKSFSLRINDLVVEDSGTYRCNVQQFPSSWPFRYWCDVYGGGTAVTVNA
3. Clone H variant 3 VNAR-hFc (Fc fusion, not shown: a dimerising Fc or GST) ARVDQTPQTITKETGESLTINCVLRDSNCELSSTYWYRKKSGSTNEESISKGGRYVETVNSGSKSFSLRINDLVVEDSGTYRCNVQQFPSWGNGRYWCDVYGGGTAVTVNA
4. Clone H variant 1 VNAR-hFc (Fc fusion, not shown: a dimerising Fc or GST, also called clone H var) ARVDQTPQTITKETGESLTINCVLRDSNCELSSTYWYRKKSGSTNEESISKGGRYVETVNSGSKSFSLRINDLVVEDSGTYRCNVVQWPSSSNGRYWCDVYGGGTAVTVNA
5. Clone H variant 7 VNAR-hFc (Fc fusion, not shown: a dimerising Fc or GST) ARVDQTPQTITKETGESLTINCVLRDSNCELSSTYWYRKKSGSTNEESISKGGRYVETVNSGSKSFSLRINDLVVEDSGTYRCNVQQFPTRTNGRYWCDVYGGGTAVTVNA

8.60
7.60
8.25
8.33
7.81
